The measurements presented in this section are drawn from patent US20160185837A1.

# Study system: human glucagon receptor (human, UniProt P47871 26-477)
# Protocol text: cell-based or functional assay
Kindly state cAMP EC50 for each of the entries shown.
Just the number in nM, nothing appended.

Exam item: Tell me measured cAMP EC50 for IP382 (Fc fusion) YSEGTFTSLYSKLLEEEAVRLFIEYLLAGGGGGGSGGGGSGGGGSGGGGSATHTCPPC please.
Marked response: 120

Exam item: Item IP323 (Fc fusion) YSEGTFTSDYSKLLEEEAVRLFIEWLVKGPGGGGGSGGGGSGGGGSGGGGSGGGGSGGGGSA : provide cAMP EC50
Marked response: 190

Exam item: Return cAMP EC50 (reported value) for this binder: IP281 (Fc fusion) YSEGTFTSDYSKLLEEEAVRLFIEWLVKGPGGGGGSGGGGSGGGGSGGGGSACPPC
Marked response: 3800

Exam item: Fill in cAMP EC50 for record IP416 (Fc fusion) YSEGTFTSDYSKLLEEEAVRLFIEWLLAGGGSGGGGSGGGGSGGGGSGGGGSGGGGSGGGGSGGGGSACPPC
Marked response: 3.4

Exam item: Look up and state reported cAMP EC50 for IP384 (Fc fusion) YSEGTFTSDYSKLLEEEAVRLFIEWLLKGGGGGGSGGGGSGGGGSGGGGSATHTCPPC
Marked response: 26
